Attribution: ChEMBL document CHEMBL3988442

# Test system: Wolbachia pipientis
# experiment.summary: Anti-Wolbachia Cell-Based Screen
# Format: functional
# Design: scale not given: in the data most compounds retested in dose-response had high values
# condition.set: 5 µM
The campaign covered roughly 48,000 compounds. About 13,000 (27%) showed an effect of 50% or more. Some of the results follow.
measured.property: Percent Effect (%)

compound="O=C1OCCC1N1CCN(C(=O)Cc2c[nH]c3ccccc23)CC1 (stereo not given)" experimental_system="Wolbachia pipientis" measured_property="Percent Effect" test_result=5.817
compound=CC(C)N1CCN(C)C2(CCN(C(=O)c3ccnnc3)CC2)C1=O experimental_system="Wolbachia pipientis" measured_property="Percent Effect" test_result=-6.646
compound=CC(C)CN1CCNC(=O)C12CCN(C(=O)c1ccccn1)CC2 experimental_system="Wolbachia pipientis" measured_property="Percent Effect" test_result=-2.981
compound="CCS(=O)(=O)N1CCC2(C1)C(=O)N(C)CCN2Cc1ccncc1.O=C(O)C(F)(F)F.O=C(O)C(F)(F)F (stereo not given)" experimental_system="Wolbachia pipientis" measured_property="Percent Effect" test_result=-0.1551
compound=N#CC1(c2ccccc2)CCN(C(=O)CN2C(=O)CCNC2=O)CC1 experimental_system="Wolbachia pipientis" measured_property="Percent Effect" test_result=-11.36

---

Entries annotated with measured Percent Effect
# Test system: Wolbachia pipientis
# experiment.summary: Anti-Wolbachia Cell-Based Screen
# Format: functional
# Design: scale not given: in the data most compounds retested in dose-response had high values
# condition.set: 5 µM
Among all 48,000 compounds or so, about 13,000 (27%) showed an effect of 50% or more. The list shows a part of the results.
measured.property: Percent Effect (%)

molecule="COc1ccc(C2SCC(=O)Nc3ccsc32)cc1OC (stereo unspecified)" experimental_system="Wolbachia pipientis" measured_property="Percent Effect" test_result=-3.857
molecule=COCC(=O)NC[C@H]1C[C@@H]2CCN1C[C@@H]2CN1CCc2ccccc21 experimental_system="Wolbachia pipientis" measured_property="Percent Effect" test_result=-6.803
molecule="COCCN1CCC2(COCc3cnc(N(C)C)nc32)C1.O=C(O)C(F)(F)F (stereo unspecified)" experimental_system="Wolbachia pipientis" measured_property="Percent Effect" test_result=1.083
molecule=COc1ncccc1CN1CC[C@H]2[C@H]1CCN2CCN(C)C.O=C(O)C(F)(F)F.O=C(O)C(F)(F)F.O=C(O)C(F)(F)F.O=C(O)C(F)(F)F experimental_system="Wolbachia pipientis" measured_property="Percent Effect" test_result=-2.708
molecule=CCS(=O)(=O)c1nnc([C@@H](N)Cc2ccccc2)o1 experimental_system="Wolbachia pipientis" measured_property="Percent Effect" test_result=144
molecule=CN(C)[C@@H]1CN(C(=O)Cc2cccc(F)c2)[C@@H]2CCCO[C@H]12.O=C(O)C(F)(F)F experimental_system="Wolbachia pipientis" measured_property="Percent Effect" test_result=118.8
molecule=COc1ncccc1CN1C[C@H]2CCN(c3ncccn3)C[C@H]2C1.O=C(O)C(F)(F)F experimental_system="Wolbachia pipientis" measured_property="Percent Effect" test_result=102
molecule="O=C(O)C(F)(F)F.O=C(O)C(F)(F)F.O=C1CC2(CCN(Cc3ccccn3)C2)CN1c1cccnc1 (stereo unspecified)" experimental_system="Wolbachia pipientis" measured_property="Percent Effect" test_result=1.703
molecule=COc1c(CNCCc2c[nH]c3cc(F)ccc23)c(C)nn1C experimental_system="Wolbachia pipientis" measured_property="Percent Effect" test_result=86.39
molecule=CCCN1CCN(C(=O)c2cnccc2C)[C@H]2CS(=O)(=O)C[C@H]21 experimental_system="Wolbachia pipientis" measured_property="Percent Effect" test_result=-10.68
molecule="CC(C)CCN1CCC2(CNS(=O)(=O)c3cccnc3O2)C1 (stereo unspecified)" experimental_system="Wolbachia pipientis" measured_property="Percent Effect" test_result=113.8
molecule="O=S1(=O)NCC2(CCN(Cc3ccc(Cl)s3)C2)Oc2ncccc21 (stereo unspecified)" experimental_system="Wolbachia pipientis" measured_property="Percent Effect" test_result=120.8
molecule="CN1CCC2(COCc3cnc(-c4ccccc4)nc32)C1.O=C(O)C(F)(F)F (stereo unspecified)" experimental_system="Wolbachia pipientis" measured_property="Percent Effect" test_result=9.461
molecule=COc1c(CNCCc2c[nH]c3cc(F)ccc23)c(C(C)C)nn1C experimental_system="Wolbachia pipientis" measured_property="Percent Effect" test_result=79.98
molecule=COCCN1CCC2(C1)CN(c1ncccn1)C2.O=C(O)C(F)(F)F experimental_system="Wolbachia pipientis" measured_property="Percent Effect" test_result=-10.62
molecule="CN1CCCC(Cc2nccnc2Cl)CC1 (stereo unspecified)" experimental_system="Wolbachia pipientis" measured_property="Percent Effect" test_result=111.8
molecule=O=C(NCc1ccccn1)[C@@H]1COC[C@H]2CNC[C@H]21 experimental_system="Wolbachia pipientis" measured_property="Percent Effect" test_result=-0.4259
molecule="NC(=O)c1cnn2c1NCC(CNCC1(c3ccccc3)CCC1)C2 (stereo unspecified)" experimental_system="Wolbachia pipientis" measured_property="Percent Effect" test_result=92.2
molecule="CCCn1cc(C(=O)NC(C(=O)O)c2ccccc2C(F)(F)F)c(C)n1 (stereo unspecified)" experimental_system="Wolbachia pipientis" measured_property="Percent Effect" test_result=7.837
molecule="CC(C)N1CCCC(Cc2nccnc2Cl)C1 (stereo unspecified)" experimental_system="Wolbachia pipientis" measured_property="Percent Effect" test_result=102.4
molecule=COc1ncccc1CN1C[C@H]2CCN(C(C)C)C[C@H]2C1.O=C(O)C(F)(F)F.O=C(O)C(F)(F)F experimental_system="Wolbachia pipientis" measured_property="Percent Effect" test_result=108.8
